Molecular target: T1, cynomolgus monkey CD137 (cynomolgus monkey, UniProt Q07011 24-186 (human entry), limits assumed)
T1 construct: Soluble analyte in the Biacore assay; also called cyno CD137
T1 chain: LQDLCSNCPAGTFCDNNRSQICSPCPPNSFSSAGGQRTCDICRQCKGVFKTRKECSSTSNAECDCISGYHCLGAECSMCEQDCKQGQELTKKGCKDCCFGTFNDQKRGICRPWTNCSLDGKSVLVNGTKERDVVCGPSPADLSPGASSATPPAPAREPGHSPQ
Experiment: SPR Biacore T200, IgG captured on protein A, antigen as analyte, 25 C;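 further: antigens flowed over a CM3 chip for 120 s association, KD derived from ka and kd, running buffer (ACES, NaCl, Tween20, pH 7.4) served as blank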
Please respond with reported koff for every item in the list.
// units = s⁻¹; emit number, no label

Q: Which koff reading was recorded for the binder dBBDu_189 / dBBDu_L126 (antibody, human IgG1, V domains shown, Tested as IgG (human IgG1 constant region, kappa light chain); also called dBBDu189/L126) VH: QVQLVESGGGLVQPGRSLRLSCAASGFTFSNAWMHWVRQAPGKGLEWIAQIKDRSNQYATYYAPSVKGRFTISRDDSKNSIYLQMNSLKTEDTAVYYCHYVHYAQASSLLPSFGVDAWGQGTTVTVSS VL: DIVMTQSPLSLPVTPGEPASISCRTSEELLHINRYIFLHWYQQKPGQAPRLLIYKVQNRFSGVPDRFSGSGSGTDFTLKISRVEAEDVGVYYCAQGSAVPFTFGQGTKLEIK ?
Ans: 0.00247

Q: For dBBDu_186 / dBBDu_L108 (antibody, human IgG1, V domains shown, Tested as IgG (human IgG1 constant region, kappa light chain); also called dBBDu186/L108) VH: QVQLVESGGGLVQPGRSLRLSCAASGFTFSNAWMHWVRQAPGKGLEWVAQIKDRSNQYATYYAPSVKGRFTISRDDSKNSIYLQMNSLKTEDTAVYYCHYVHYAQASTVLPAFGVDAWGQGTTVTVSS VL: DIVMTQSPLSLPVTPGEPASISCRTSEELLHINRFTFLHWYQQKPGQAPRLLIYKVSNRFMGVPDRFSGSGSGTDFTLKISRVEAEDVGVYYCAQGSAVPFTFGQGTKLEIK , what is its reported koff?
Ans: 0.00361

Q: Bench note: what koff did dBBDu_183 / dBBDu_L063 (antibody, V domains shown, Tested as IgG (Fab genes converted into IgG format, human IgG1 constant region, kappa light chain); also called dBBDu183/L063; dBBDu_183/L063) VH: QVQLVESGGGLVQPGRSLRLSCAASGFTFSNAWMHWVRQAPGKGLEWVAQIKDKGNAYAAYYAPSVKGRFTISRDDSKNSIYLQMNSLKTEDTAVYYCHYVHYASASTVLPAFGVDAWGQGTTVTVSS VL: DIVMTQSPLSLPVTPGEPASISCRSSQELVHTNRHTYLHWYQQKPGQAPRLLIYKVSNRFPGVPDRFSGSGSGTDFTLKISRVEAEDVGVYYCAQGTQVPFTFGQGTKLEIK show?
Ans: 0.00457
